Source: patent US20200317776A1

TARGET_OR_SYSTEM: human TREM2/DAP12 fusion protein (human, UniProt O43914 41-113, limits assumed)
Sequence (O43914 other isoform, or with tags, fused parts or gaps limits assumed): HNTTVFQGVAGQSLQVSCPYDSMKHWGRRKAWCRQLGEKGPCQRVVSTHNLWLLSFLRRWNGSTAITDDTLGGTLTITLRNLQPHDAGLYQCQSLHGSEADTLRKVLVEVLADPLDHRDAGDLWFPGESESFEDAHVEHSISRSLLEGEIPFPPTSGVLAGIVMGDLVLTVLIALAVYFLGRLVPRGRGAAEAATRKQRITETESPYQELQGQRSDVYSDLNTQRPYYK
ASSAY_REMARKS: cell-based or functional assay
EXPERIMENTAL_ENDPOINT: Luciferase activation soluble 10 nM IgG, FOC (FOC)
Respond numerically; units are FOC and should not be typed.

Examples with their reported Luciferase activation soluble 10 nM IgG, FOC follow.
BINDER	RECORDED_RESULT
AL2p-7 (antibody, V domains shown, Fab and IgG formats under one id) VH: QVQLVQSGAEVKKPGSSVKVSCKASGYAFSLSWMNWVRQAPGQGLEWMGRIYPGDGDTNYAQKFRGRVTITADESTSTAYMELSSLRSEDTAVYYCARLLRNQPGESYAMDYWGQGTLVTVSS VL: GVVMTQTPLSLSVTPGQPASISCRSSQSLIHSNGYTYLHWYLQKPGQSPQLLIYKVSNRRSGVPDRFSGSGSGTDFTLKISRVEAEDVGVYYCSQSTRVPYTFGQGTKLEIK	2.35
AL2p-14 (antibody, V domains shown, Fab and IgG formats under one id) VH: QVQLVQSGAEVKKPGSSVKVSCKASGYAFSSHWMNWVRQAPGQGLEWMGRIYPGDGDTNYAQKFQGRVTITADESTSTAYMELSSLRSEDTAVYYCARLLRNQPGESYAMDYWGQGTLVTVSS VL: GVVMTQTPLSLSVTPGQPASISCRSSRSLVHSNGYTYLHWYLQKPGQSPQLLIYKVSNRFSGVPDRFSGSGSGTDFTLKISRVEAEDVGVYYCSQSTRVPYTFGQGTKLEIK	1.79
AL2p-8 (antibody, V domains shown, Fab and IgG formats under one id) VH: QVQLVQSGAEVKKPGSSVKVSCKASGYAFSLSWMNWVRQAPGQGLEWMGRIYPGDGDTNYARKFQGRVTITADESTSTAYMELSSLRSEDTAVYYCARLLRNQPGSSYAMDYWGQGTLVTVSS VL: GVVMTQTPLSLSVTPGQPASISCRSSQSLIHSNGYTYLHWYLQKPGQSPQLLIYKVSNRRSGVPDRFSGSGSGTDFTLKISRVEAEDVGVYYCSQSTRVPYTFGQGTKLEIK	2.78

Problem: Given AL2p-25 (antibody, V domains shown, Fab and IgG formats under one id) VH: QVQLVQSGAEVKKPGSSVKVSCKASGYAFSSHWMNWVRQAPGQGLEWMGRIYPGGGDTNYAQKFRGRVTITADESTSTAYMELSSLRSEDTAVYYCARLLRNQPGESYAMDYWGQGTLVTVSS VL: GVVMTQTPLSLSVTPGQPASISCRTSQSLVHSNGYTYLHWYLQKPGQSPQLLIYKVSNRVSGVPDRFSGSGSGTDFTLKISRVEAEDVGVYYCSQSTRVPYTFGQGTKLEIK , state its recorded Luciferase activation soluble 10 nM IgG, FOC.
Result: 2.35

Problem: Given AL2p-36 (antibody, V domains shown, Fab and IgG formats under one id) VH: QVQLVQSGAEVKKPGASVKVSCKASGYAFSSSWMNWVRQAPGQRLEWIGRIYPGDGDTNYARKFQGRVTITADTSASTAYMELSSLRSEDTAVYYCARLLRNQPGASYAMDYWGQGTLVTVSS VL: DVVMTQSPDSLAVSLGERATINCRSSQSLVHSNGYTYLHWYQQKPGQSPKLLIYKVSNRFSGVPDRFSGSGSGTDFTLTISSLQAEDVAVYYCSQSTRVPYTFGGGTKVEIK , state its recorded Luciferase activation soluble 10 nM IgG, FOC.
Result: 2.64
